TESTED_TARGET: Cks1-Skp2 protein-protein interaction (Homo sapiens, UniProt P61024+Q13309)
Sequence (P61024 whole entry): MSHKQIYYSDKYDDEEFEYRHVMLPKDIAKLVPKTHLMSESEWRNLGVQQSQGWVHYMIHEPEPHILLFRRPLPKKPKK
Sequence (Q13309 whole entry): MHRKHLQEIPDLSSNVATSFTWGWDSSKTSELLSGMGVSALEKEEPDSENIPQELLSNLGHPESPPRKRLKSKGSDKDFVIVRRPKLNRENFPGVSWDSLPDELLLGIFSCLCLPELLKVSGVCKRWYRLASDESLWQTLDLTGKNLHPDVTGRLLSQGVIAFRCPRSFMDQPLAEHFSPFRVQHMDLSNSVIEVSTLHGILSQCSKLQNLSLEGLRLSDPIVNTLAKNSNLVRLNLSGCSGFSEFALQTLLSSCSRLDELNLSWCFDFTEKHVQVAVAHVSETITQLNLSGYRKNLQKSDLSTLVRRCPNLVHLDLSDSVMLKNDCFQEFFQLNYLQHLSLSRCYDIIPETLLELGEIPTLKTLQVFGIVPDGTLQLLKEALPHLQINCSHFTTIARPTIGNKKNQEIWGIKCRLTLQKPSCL
PROCEDURE_SUMMARY: Cks1-Skp2 protein-protein interaction ELISA
Type: binding
REPORTED_CONDITIONS: sulfonamide analogues; Table 2; read-out: Potency in the Cks1-Skp2 interaction assay
TEST_READOUT: log10 IC50 (log10 of the value in µM)
log10 IC50, µM

Below, each entry is followed by its recorded log10 IC50 result.
CC(=O)Nc1ccc(S(=O)(=O)Nc2ccc(-c3cccnc3)c3cccnc23)cc1 :: 1.16
O=S(=O)(Nc1ccc(-c2ccccc2)c2cccnc12)c1cccnc1 :: 0.34
COc1ccc(S(=O)(=O)Nc2ccc(-c3ccccc3)c3cccnc23)cc1 :: 0.90
O=S(=O)(Nc1ccc(-c2ccncc2)c2cccnc12)C1CC1 :: 1.04
CC(=O)Nc1ccc(S(=O)(=O)Nc2ccc(-c3ccncc3)c3cccnc23)cc1 :: 0.82

Answer with the recorded log10 IC50 for the compound listed here: CC(=O)Nc1ccc(S(=O)(=O)Nc2ccc(-c3ccccc3)c3cccnc23)cc1 0.88

Answer with the recorded log10 IC50 for the compound listed here: CS(=O)(=O)Nc1ccc(-c2cccnc2)c2cccnc12 1.18

Answer with the recorded log10 IC50 for the compound listed here: O=S(=O)(Nc1ccc(-c2ccncc2)c2cccnc12)c1cccnc1 0.08

Answer with the recorded log10 IC50 for the compound listed here: CS(=O)(=O)Nc1ccc(-c2ccccc2)c2cccnc12 0.34
